So I've got log10 of IC50 readings for Furin [108-574] (Homo sapiens), take a look.
log10 IC50, pM

Hello, please tell me recorded log10 of IC50 for this one: COC(=O)NCC1CCN(Cc2cc(Oc3cnc(N4CC5CCC(C4)N5CCC(=O)O)nc3)nc(-c3cc(Cl)cc(Cl)c3)c2)CC1 [US11773078, Example 56]
1.51

Hello, please tell me recorded log10 of IC50 for this one: CNC(=O)OCC1CCN(Cc2cc(Oc3ccc(N4CCN(C)CC4)nc3)nc(-c3cc(Cl)cc(Cl)c3)c2)CC1 [US11773078, Example 67]
3.20

Hello, please tell me recorded log10 of IC50 for this one: CC(=O)NCC1CCN(Cc2cc(Cc3cnc(N4CCN(C(C)CCC(=O)O)CC4)nc3)nc(-c3cc(Cl)cc(Cl)c3)c2)CC1 (centres undefined) [US11773078, Example 215]
2.60

Hello, please tell me recorded log10 of IC50 for this one: CNC(=O)NCC1CCN(Cc2cc(Oc3cnc(N4CCN(CCC(C)[S+](C)[O-])CC4)nc3)nc(-c3cc(Cl)cc(Cl)c3)c2)CC1 (centres undefined) [US11773078, Example 17]
1.51

Hello, please tell me recorded log10 of IC50 for this one: C[C@H](CC1CCN(Cc2cc(Oc3ccc(N4CCN(C)CC4)nn3)nc(-c3cc(Cl)cc(Cl)c3)c2)CC1)C(=O)O [US11773078, Example 364]
2.30

Hello, please tell me recorded log10 of IC50 for this one: CNC(=O)NCC1CCN(Cc2cc(Oc3cnc(N4CCN(C)CC4)nc3)nc(-c3cc(Cl)cc(Cl)c3)c2)CC1 [US11773078, Example 70]
1.51

Hello, please tell me recorded log10 of IC50 for this one: NS(=O)(=O)CCC1CCN(Cc2cc(Oc3ccc(N4CCN(CCC(=O)O)CC4)nc3)nc(-c3cc(Cl)cc(Cl)c3)c2)CC1 [US11773078, Example 277]
1.51

Hello, please tell me recorded log10 of IC50 for this one: CN1CCC(c2ncc(Oc3cc(CN4CCC(CC(=O)O)CC4)cc(-c4cc(Cl)cc(Cl)c4)n3)cn2)CC(F)C1 (centres undefined) [US11773078, Example 147]
2.80

Hello, please tell me recorded log10 of IC50 for this one: CN1C2CC1CN(c1ncc(Oc3cc(CN4CCC(CC(=O)O)CC4)cc(-c4cc(Cl)cc(Cl)c4)n3)cn1)C2 [US11773078, Example 228]
3.40

Hello, please tell me recorded log10 of IC50 for this one: CC(=O)NCC1CCN(Cc2cc(Oc3cnc(N4CCN(C(=O)CCN)CC4)nc3)cc(-c3cc(Cl)cc(Cl)c3)c2)CC1 [US11773078, Example 170]
2.90

Hello, please tell me recorded log10 of IC50 for this one: CN1CCCN(c2ccc(Oc3cc(CN4CC[C@@H]5[C@H](CC4)[C@H]5C(=O)O)cc(-c4cc(Cl)cc(Cl)c4)n3)nn2)CC1 [US11773078, Example 362]
1.51

Hello, please tell me recorded log10 of IC50 for this one: CNC(=O)OCC1CCN(Cc2cc(Oc3cnc(N4CCN(CCC(=O)O)CC4)nc3)nc(-c3cc(Cl)cc(Cl)c3)c2)CC1 [US11773078, Example 248]
1.51

Hello, please tell me recorded log10 of IC50 for this one: CNC(=O)OCC1CCN(Cc2cc(Oc3cnc(N4CCN(C(C)CCC(=O)O)CC4)nc3)nc(-c3cc(Cl)cc(Cl)c3)c2)CC1 (centres undefined) [US11773078, Example 208]
1.11
